hERG inhibition rate/10 μM for assorted compounds
molecular target: hERG potassium ion channel (Homo sapiens, UniProt Q12809); construct: host or cells: CHO cells stably expressing hERG; assay: Inhibition of hERG potassium ion channel, manual whole-cell patch clamp in CHO hERG cells; type: cell-based; settings: CHO cells stably expressing hERG
Sequence (Q12809 whole entry): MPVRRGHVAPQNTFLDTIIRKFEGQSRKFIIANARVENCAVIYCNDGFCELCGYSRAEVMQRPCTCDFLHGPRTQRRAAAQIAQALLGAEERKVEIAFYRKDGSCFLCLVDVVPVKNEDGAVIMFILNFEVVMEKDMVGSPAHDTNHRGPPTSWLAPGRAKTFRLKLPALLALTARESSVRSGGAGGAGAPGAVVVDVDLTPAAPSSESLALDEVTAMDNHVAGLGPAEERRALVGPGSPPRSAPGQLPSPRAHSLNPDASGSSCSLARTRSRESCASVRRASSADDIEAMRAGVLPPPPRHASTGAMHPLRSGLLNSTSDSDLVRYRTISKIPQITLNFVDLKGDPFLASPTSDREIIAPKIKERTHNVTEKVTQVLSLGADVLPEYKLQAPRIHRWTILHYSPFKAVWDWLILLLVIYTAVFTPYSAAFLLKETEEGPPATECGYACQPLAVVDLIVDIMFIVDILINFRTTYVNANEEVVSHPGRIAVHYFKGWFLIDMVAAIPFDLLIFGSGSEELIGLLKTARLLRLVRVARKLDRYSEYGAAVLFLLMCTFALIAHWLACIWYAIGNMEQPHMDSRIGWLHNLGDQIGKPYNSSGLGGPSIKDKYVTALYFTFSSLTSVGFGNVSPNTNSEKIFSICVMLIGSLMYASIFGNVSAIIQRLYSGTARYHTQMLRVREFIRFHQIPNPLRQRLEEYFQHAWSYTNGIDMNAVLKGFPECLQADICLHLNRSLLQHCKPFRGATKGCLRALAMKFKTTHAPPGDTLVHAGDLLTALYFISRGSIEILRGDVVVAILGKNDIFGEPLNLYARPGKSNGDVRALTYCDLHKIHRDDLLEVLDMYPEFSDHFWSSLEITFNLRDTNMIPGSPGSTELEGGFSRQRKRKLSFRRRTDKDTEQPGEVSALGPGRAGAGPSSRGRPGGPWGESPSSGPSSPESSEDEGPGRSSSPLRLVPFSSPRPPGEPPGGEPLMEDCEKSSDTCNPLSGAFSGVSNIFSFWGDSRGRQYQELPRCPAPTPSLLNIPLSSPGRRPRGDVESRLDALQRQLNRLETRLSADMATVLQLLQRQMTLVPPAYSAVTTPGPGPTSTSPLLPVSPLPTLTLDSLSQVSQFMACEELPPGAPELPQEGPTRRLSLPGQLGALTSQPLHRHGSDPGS
Result type: hERG inhibition rate/10 μM (%)

1. CCN(C(=O)Oc1ccc2c(c1)[C@@]1(C)CCCCC[C@@H](C2)[C@@H]1N)C1CCN(C)CC1 [Compound Z-131] : 39.88
2. C[C@@]12CCCCC[C@@H](Cc3ccc(OC(=O)N4CCC(N5CCOCC5)CC4)cc31)[C@@H]2N [Compound Z-109] : 17.20
3. CN(C)C1CCN(C(=O)Oc2ccc3c(c2)[C@@]2(C)CCCCC[C@@H](C3)[C@@H]2N)CC1 [Compound Z-123] : 8.84
4. CC(CO)NC(=O)Oc1ccc2c(c1)C1(C)CCCCCC(C2)C1N (stereo not shown) [Compound Z-126] : 4.92
5. CCN(CCN(C)C)C(=O)Oc1ccc2c(c1)[C@@]1(C)CCCCC[C@@H](C2)[C@@H]1N [Compound Z-113] : 16.02
6. C[C@@]12CCCCC[C@@H](Cc3ccc(OC(=O)N4CCC(C(=O)O)CC4)cc31)[C@@H]2N [Compound Z-130] : 3.24
7. CC12CCCCCC(Cc3ccc(OC(=O)NC4CC(O)C4)cc31)C2N (stereo not shown) [Compound Z-115] : 12.90
8. COc1ccc(NC(=O)Oc2ccc3c(c2)[C@@]2(C)CCCCC[C@@H](C3)[C@@H]2N)nc1 [Compound Z-119] : 78
9. CN(CCO)C(=O)Oc1ccc2c(c1)[C@@]1(C)CCCCC[C@@H](C2)[C@@H]1N [Compound Z-127] : 9.95
10. C[C@@]12CCCCC[C@@H](Cc3ccc(OC(=O)NC4COC4)cc31)[C@@H]2N [Compound Z-117] : 20.59
